target.or.test.system: T1, human MAdCAM (human, UniProt Q13477 19-317, limits assumed)
T1 construct: also called huMAdCAM; human MAdCAM-1
T1 sequence (looked up): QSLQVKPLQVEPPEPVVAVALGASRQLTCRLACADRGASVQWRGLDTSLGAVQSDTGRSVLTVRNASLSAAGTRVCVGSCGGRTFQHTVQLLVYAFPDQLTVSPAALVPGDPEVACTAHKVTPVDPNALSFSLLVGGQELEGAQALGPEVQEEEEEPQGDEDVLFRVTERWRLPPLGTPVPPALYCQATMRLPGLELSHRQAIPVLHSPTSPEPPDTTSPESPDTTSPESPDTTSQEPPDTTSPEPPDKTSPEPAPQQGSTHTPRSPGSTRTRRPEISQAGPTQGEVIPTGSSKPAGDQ
measurement.description: BLI (Octet), binder on anti-human Fc tips
The threshold is 400 nM. Values of Kd beneath it are tagged 1 (yes); values meeting or exceeding it are tagged 0 (no).

Does the reported Kd of MIAB13 (antibody, V domains shown, tested with human Fc) VH: EVQLLESGGGLVQPGGSLRLSCAASGFTFDDYAMHWVRQAPGKGLEWVASITSSSAFIDYADSVKGRFTISRDNSKNTLYLQMNSLRAEDTAVYYCARERVLWNSYFDLWGQGTLVTVSS VL: EIVMTQSPATLSVSPGERATLSCRASQNVNNNLAWYQQKPGQAPRLLIYDATTRATGIPARFSGSGSGTEFTLTISSLQSEDFAVYYCQQYYHWPQTFGQGTKVEIK stay below 400 nM? 1 (yes)

Does the reported Kd of MIAB153 (antibody, V domains shown, tested with human Fc) VH: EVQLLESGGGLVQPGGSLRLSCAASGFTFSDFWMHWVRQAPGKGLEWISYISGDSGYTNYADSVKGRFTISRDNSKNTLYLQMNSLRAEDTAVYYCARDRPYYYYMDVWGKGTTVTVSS VL: DIQMTQSPSSLSASVGDRVTITCRASQSVSSSLNWYQQKPGKAPKLLIYAASSLQSGVPSRFSGSGSGTDFTLTISSLQPEDFATYYCQQYKSYPVTFGQGTKVEIK stay below 400 nM? 0 (no)

Does the reported Kd of MIAB121 (antibody, V domains shown, tested with human Fc) VH: EVQLLESGGGLVQPGGSLRLSCAASGFIFDDYAMHWVRQAPGKGLEWVASITSSSAFIDYADSVKGRFTISRDNSKNTLYLQMNSLRAEDTAVYYCARERVDWFSYFDLWGQGTLVTVSS VL: EIVMTQSPATLSVSPGERATLSCRACPSVSNNLVWYQQKPGQAPRLLIYDASTRATGIPARFSGSGSGTEFTLTISSLQSEDFAVYYCQQYSHWPPTFGQGTKVEIK stay below 400 nM? 1 (yes)

Does the reported Kd of MIAB151 (antibody, V domains shown, tested with human Fc) VH: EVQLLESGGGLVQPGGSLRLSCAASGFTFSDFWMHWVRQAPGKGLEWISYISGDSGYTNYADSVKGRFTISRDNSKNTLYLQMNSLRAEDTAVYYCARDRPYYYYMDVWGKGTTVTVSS VL: DIQMTQSPSSLSASVGDRVTITCRASQSISRSLNWYQQKPGKAPKLLIYAASSLQSGVPSRFSGSGSGTDFTLTISSLQPEDFATYYCQQYKSYPVTFGQGTKVEIK stay below 400 nM? 0 (no)

Does the reported Kd of MIAB183 (antibody, V domains shown, tested with human Fc; also called MIAB183-001) VH: EVQLLESGGGLVQPGGSLRLSCAASGFTFSSYWMHWVRQAPGKGLEWVSAISGSGGSTYYADSVKGRFTISRDNSKNTLYLQMNSLRAEDTAVYYCARDRPYYYYMDVWGKGTTVTVSS VL: DIQMTQSPSSLSASVGDRVTITCRASQSVSSSLAWYQQKPGKAPKLLIYAASSLQSGVPSRFSGSGSGTDFTLTISSLQPEDFATYYCQQYKSYPVTFGQGTKVEIK stay below 400 nM? 1 (yes)
